# Tested on: OVCAR-3
# ASSAY TEXT: NCI tumour cell line growth inhibition, 48 h
Active and inactive are the calls of the source. Rule as the data show it: active = GI50 up to about 1.1 µM and inactive = higher.
Allowed answers: active, inactive

Example results:
COc1cc(/C=N\O[Si](C)(C)C(C)(C)C)ccc1O[Si](C)(C)C(C)(C)C | inactive
[N-]=[N+]=Nc1ccc(CCN2CCN(c3cccc(C(F)(F)F)c3)CC2)cc1I | inactive
CC(C)(CN1CCCCC1)C(=O)CC(SCCS(=O)(=O)O)c1ccc(Cl)cc1 (stereo unspecified) | inactive

Kindly provide the recorded test outcome for the following compound: O=C1/C(=C/c2ccc(O)c(O)c2)CCC/C1=C\c1ccc(O)c(O)c1
inactive

Hi, sorry to bother you, what did the test record for [O-][S+](Nc1ccccc1)c1ccc(N2CCOCC2)cc1 (stereo unspecified) ?
inactive

Record request — test call for Cc1cc(Cl)nc2nc(Cl)c(N)cc12
inactive

In this assay, the call recorded for CC(C)NC(C)Cc1ccccc1 (stereo unspecified) was what?
inactive

Outcome? COC(=O)/C(C)=C(/CCC1(C)OCCO1)O[Si](C)(C)C
inactive

For CCC1C(c2ccccc2O)c2cc3c(cc2OC1N1CCOCC1)OCO3 (stereo unspecified) , what call appears in the results of this test?
inactive

Which outcome was entered for the compound O=c1[nH]c(=O)n([C@@H]2O[C@H](CO)[C@@H](O)[C@H]2O)cc1F in this test?
active

Per the assay record, what outcome was assigned to C(=N/c1ccccc1C1SCCCS1)/c1ccccc1 ?
inactive

---

# System: SN12C
# ASSAY TEXT: NCI tumour cell line growth inhibition, 48 h
Calls of active or inactive are those of the source. No stated cut-off is given here; in the data, active = GI50 up to about 1.1 µM and inactive = higher.
TEST READOUT: GI50

Reference set, count: 2
COc1ccccc1Cn1c2c(c3c(C(=O)NCCN(C)C)c(O)ccc31)C(=O)c1ccccc1C2=O | 1.94 µM (inactive)
Nc1c2c(nc3ccccc13)-c1ccccc1CC2 | 4.06 µM (inactive)

Attention now turns to another entry.
Quick one: give measured GI50 for O=[N+]([O-])c1ccccc1S(=O)(=O)N1CCCc2cc(Cl)ccc21
82.4 µM (inactive)

---

# System: RXF 393
# ASSAY TEXT: NCI tumour cell line growth inhibition, 48 h
Activity calls are given as the source filed them. No stated cut-off is given here; in the data, active = GI50 up to about 1.1 µM and inactive = higher.
TEST READOUT: GI50

Cc1c(C)c2c(c(N)c1C#N)C(=O)N(OS(=O)(=O)c1ccccc1)C2=O | 15.2 µM (inactive)
COP1(=O)NCc2ncccc2O1 (stereo not given) | > 100 µM (inactive)
Cc1cccc(Cl)c1NC(=O)c1cccc([N+](=O)[O-])c1O | 16.7 µM (inactive)
CC1=CC(c2ccccc2)n2c(nc3cc4ccccc4cc32)N1 (stereo not given) | > 100 µM (inactive)
N#CC(C#N)=C(N)/C(C#N)=C/c1ccc2[nH]ccc2c1 | > 91.2 µM (inactive)

Please look at this compound and report its GI50: COc1ccc2c(c1)CC1C3(CCCCC23)CC[N+]1(C)C (stereo not given)
> 100 µM (inactive)

Fill in GI50 for record Cc1cccc2c1NC(=O)/C2=N\Nc1ccccc1[N+](=O)[O-]
3.66 µM (inactive)

Report GI50 for CC1C2CC(CC2(C)O)C1(C)C (stereo not given)
> 100 µM (inactive)

Report GI50 for CCCC(=O)NC(NC1CCCCC1)(C(=O)OCC)C(F)(F)F (stereo not given)
> 100 µM (inactive)

Report GI50, nothing else, for this compound: COc1cc(C2c3cc4c(cc3OC(N3CCCCC3)C2C)OCO4)cc(OC)c1OC (stereo not given)
2.15 µM (inactive)

Write down GI50 measured for item Cc1c2cc[n+](C)cc2c(C)c2c1[nH]c1ccc(O)cc12 [ELLIPTINIUM ACETATE]
62.5 µM (inactive)

Tell me GI50 reported for CN1CCC/C1=C1\C(=O)c2cccn2C1=O
> 100 µM (inactive)

Output measured GI50 for this item: CCC12C=CCN3CCC4(c5cc(C6(C(=O)OC)CCCCCc7c6[nH]c6ccccc76)c(OC)cc5N(C)C4C(O)(C(=O)OC)C1OC(C)=O)C32 (stereo not given)
1.64 µM (inactive)

Specify measured GI50 for CC(C)(CN1CCCCC1)C(=O)CC(SCCS(=O)(=O)O)c1ccc(Cl)cc1 (stereo not given) .
3.1 µM (inactive)

Complete the entry with GI50 for CC1(C)Cc2c(c3ccccc3c3nc4c(nc23)c2c(c3ccccc34)OC(C)(C)C2)O1
> 100 µM (inactive)

Attribution: ChEMBL document CHEMBL1201862
